# assay-comment: qHTS assay to identify small molecule agonists of the estrogen receptor beta (ER-beta) signaling pathway - cell viability counter screen (AID 1259380); further: nearly all actives have a fitted effect of over 30% in size
# test-parameters: ER-beta-bla HEK293T viability, CellTiter-Glo luminescence, 16 h; series mostly up to 92.4 µM
Inconclusive results are not listed. The source made the active and inactive calls. The call rests on the fitted dose curve; in most records, active means well fitted cell-killing curve with a large enough effect in the repeat runs; inconclusive means weak or mixed curves, or effect the other way; inactive means flat fitted curve, though single readings scatter.
Bench note: report the call from active, inactive

Problem: Identify the outcome logged in this assay for the compound shown: CC(CC(C#N)(c1ccccc1)c1ccccc1)N(C)C (stereo not drawn)
Result: active

Problem: Hi, do you know how O=C1OC(=O)C2C1C1(Cl)C(Cl)=C(Cl)C2(Cl)C1(Cl)Cl (stereo not drawn) came out in this test?
Result: inactive

Problem: Short answer needed: outcome of this test for "CNC(=O)Oc1cccc(C(C)C)c1" ?
Result: inactive

Problem: Hi, do you know how "O=[N+]([O-])c1cccc2cccnc12" came out in this test?
Result: inactive

Problem: For "CC(=O)CCc1ccc2c(c1)OCO2" , which call appears in the assay record?
Result: inactive

Problem: Status in this test for "O=C(NCO)NCO" ?
Result: inactive

Problem: Any idea what this test logged for "O=S(=O)(O)C(F)(F)C(F)(F)C(F)(F)C(F)(F)C(F)(F)C(F)(F)F" ?
Result: inactive

Problem: Answer briefly: the call reported for Fc1ccc(C2(Cn3cncn3)OC2c2ccccc2Cl)cc1 (stereo not drawn) in this assay.
Result: active

Problem: // outcome(item) with item = "CCOC(=O)CP(=O)(OCC)OCC"
Result: inactive

Problem: Write down the call the test reported for this compound. Item: "CC1=NNC(=O)N(/N=C/c2cccnc2)C1"
Result: inactive

Problem: GET /call?item= "COc1ncc(F)c2nc(S(=O)(=O)Nc3c(F)cccc3F)nn12" returns the recorded outcome of this test.
Result: inactive

Problem: What did the test return for "CSc1ccc(C(=O)C(C)(C)N2CCOCC2)cc1" ?
Result: inactive

Problem: So what was the verdict on "O=C(CCN1CC1)OCC(CO)(COC(=O)CCN1CC1)COC(=O)CCN1CC1" in this test?
Result: inactive

###

# assay-comment: qHTS assay to identify small molecule agonists of the peroxisome proliferator-activated receptor delta (PPARd) signaling pathway - cell viability counter screen (AID 743211); further: nearly all actives have a fitted effect of over 55% in size
# test-parameters: PPARd-bla HEK293H viability, CellTiter-Glo luminescence, 17 h; series mostly up to 62.6 µM
Records with an inconclusive call do not appear. The source made the active and inactive calls. Calls follow the shape of the dose curve; as a rule, active = well fitted cell-killing curve with a large enough effect in the repeat runs; inconclusive = weak or mixed curves; inactive = no such curve, though single readings can be large or run the other way.
property-label: outcome

// below: answered molecules
[Cl][Sn]([Cl])([Cl])[Cl] :: inactive
O=NN1CCN(N=O)CC1 :: inactive
Nc1cnn(-c2ccccc2)c(=O)c1Cl :: inactive
CCCCc1ccc(O)cc1 :: inactive

Problem: Return reported outcome; argument: "O=[N+]([O-])c1cccc(O)c1"
Result: inactive

Problem: # get_value(readout='outcome', item= "O=C1c2ccccc2C(=O)c2ccccc21" )
Result: inactive

Problem: # query: outcome of entry "CCCCCCBr"
Result: inactive

Problem: Given the entry "COc1cccc(C(=O)NN(C(=O)c2cc(C)cc(C)c2)C(C)(C)C)c1C" , report its measured outcome.
Result: inactive

Problem: Fill in: outcome of "CC(=O)CCc1ccc2c(c1)OCO2" is ___
Result: inactive

Problem: Which outcome value is on record for "C#CCN1C(=O)COc2cc(F)c(N3C(=O)C4=C(CCCC4)C3=O)cc21" ?
Result: inactive

Problem: Quick check: outcome of "Cc1ncsc1CCCl" ?
Result: inactive

Problem: For the molecule "O=C(CCN1CC1)OCC(CO)(COC(=O)CCN1CC1)COC(=O)CCN1CC1" , what outcome is on record?
Result: inactive

Problem: # input molecule: "N#CCNCC#N" ; wanted: its outcome
Result: inactive

Problem: State the recorded outcome for this entry: "O=C(CCCN1CCC(n2c(=O)[nH]c3ccccc32)CC1)c1ccc(F)cc1"
Result: inactive
